Target: T1, Human ROR1 (receptor tyrosine kinase-like orphan receptor 1) (human, UniProt Q01973 30-937)
T1 construct: also called hROR1; K562/ROR1
T1 sequence (Q01973 30-937): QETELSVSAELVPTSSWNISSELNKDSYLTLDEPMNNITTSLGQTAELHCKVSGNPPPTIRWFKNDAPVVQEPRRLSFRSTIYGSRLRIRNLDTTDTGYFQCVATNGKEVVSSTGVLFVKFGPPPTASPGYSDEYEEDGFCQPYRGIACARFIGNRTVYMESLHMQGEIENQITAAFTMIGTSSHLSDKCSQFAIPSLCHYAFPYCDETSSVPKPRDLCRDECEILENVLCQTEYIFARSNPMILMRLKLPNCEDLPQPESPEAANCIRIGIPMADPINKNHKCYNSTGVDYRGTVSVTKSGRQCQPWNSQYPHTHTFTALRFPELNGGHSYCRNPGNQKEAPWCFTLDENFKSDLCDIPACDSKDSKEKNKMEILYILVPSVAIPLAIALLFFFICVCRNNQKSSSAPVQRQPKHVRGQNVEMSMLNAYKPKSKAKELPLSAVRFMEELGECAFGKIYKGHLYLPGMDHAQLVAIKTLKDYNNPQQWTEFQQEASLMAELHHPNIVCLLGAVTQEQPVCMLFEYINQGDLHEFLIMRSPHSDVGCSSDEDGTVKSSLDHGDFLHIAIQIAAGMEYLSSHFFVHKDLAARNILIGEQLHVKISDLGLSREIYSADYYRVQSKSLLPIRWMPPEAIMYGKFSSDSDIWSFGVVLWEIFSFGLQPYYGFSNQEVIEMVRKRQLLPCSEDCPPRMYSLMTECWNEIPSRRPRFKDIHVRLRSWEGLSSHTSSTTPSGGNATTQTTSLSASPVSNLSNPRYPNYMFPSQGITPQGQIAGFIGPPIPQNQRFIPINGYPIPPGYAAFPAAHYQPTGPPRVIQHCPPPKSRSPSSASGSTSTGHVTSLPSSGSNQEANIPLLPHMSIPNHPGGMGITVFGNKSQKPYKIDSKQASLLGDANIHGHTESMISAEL
Assay: competition with R12 scFv on ROR1-expressing cells; predicted plateau relative to R12 scFv = 100%
measured_property: % Max Competition (%)
Numbers only, in %.

Consider the following illustrative entries.
{"columns": ["binder", "unit_abbrev", "test_value"],
 "data": [
  ["Clone 83 scFv (scFv) scFv: QVQLVQSGAEVKKPGASVKVSCKASGYTFTSYYMHWVRQAPGQGLEWMGIINPSGGSTSYAQKFQGRVTMTRDTSTSTVYMELSSLRSEDTAVYYCARDSSYDAFDIWGQGTMVTVSSGGGGSGGGGSGGGGSAIQLTQSPSTLSASVGDRVTITCQASQDISNYLNWYQQKPGKAPKLLINDASYLETGVPSRFSGSGSGTDFTLTISSLQPEDIATYYCQQYESLPYTFGQGTKLEIK", "%", 103],
  ["Clone 298 scFv (scFv) scFv: EVQLVESGGGLVQPGRSLRLSCTASGFTFGDYAMSWVRQAPGKGLEWVSSISGSGRSTDHADYVKGRFTISRDNSKNTVYLQMNRLRAEDTAVYYCAKVSNYEYYFDYWAQGTLVTVSSGGGGSGGGGSGGGGSEIVLTQSPSVSVAPGQTARITCGGSNIGSESVNWYQWKSGQVPVLVVSDTTDRPSGIPGRFTGTRSGTTATLTISGVEAGDEADYHCQVWDDTGDHPVFGGGTKLTVL", "%", 88]
]}

The reported value for Clone 40 scFv (scFv, the two differ at the VH N-terminus; Printed without a linker) scFv: QVTLKESGGGLVKPGGSLRLSCAASGFTFSNAWMSWVRQAPGKGLEWVGRIKSKTDGGTTDYAAPVKGRFTISRDDSKNTLYLQMNSLRTEDTAVYYCARDFGRWSYYFDYWSQGTLVTVSSQPVLTQPHSVSESPGKTVTISCTRSSGNIASNFVQWYQRRPDGATTNVIYEDTQRPSGVSGRFSGSIDRSSNSASLTISGLRAEDEADYYCQSYDGRNLMFGGGTKVTVL in terms of % Max Competition is 70
